Property: Product vs. Substrate (% area), Alcalase CLEA; scope: individual substances
target: Alcalase CLEA (Bacillus licheniformis, UniProt P00780); construct: purchased CLEA Technologies B. V., Delft, The Netherlands; test: Deprotection of model dipeptides by Alcalase CLEA (Example 3); assay type: biochemical; settings: 0.1 mmol, 5 mg enzyme, 50 v/v % DMF/phosphate buffer pH 7, 40° C., 6 hours
* marks the point of attachment. Cbz = O=C(OCc1ccccc1)*; OtBu = CC(C)(C)O*

Some entries whose results are on file:
* Cbz-Val-Ala-OtBu | 100/0
* Cbz-Val-Asn-OtBu | 100/0
* Cbz-Val-Leu-OtBu | 98/2
* Cbz-Val-Gln-OtBu | 100/0

query: Alcalase CLEA (Bacillus licheniformis, UniProt P00780) / Product vs. Substrate (% area), Alcalase CLEA / `Cbz-Val-Pro-OtBu` : value?
result: 0/100

* * *

Property: Ratio Desired Product vs. Substrate (% area); scope: individual substances
Target: Alcalase CLEA (Bacillus licheniformis)
Construct: purchased CLEA Technologies B. V., Delft, The Netherlands
Sequence (P00780 106-379): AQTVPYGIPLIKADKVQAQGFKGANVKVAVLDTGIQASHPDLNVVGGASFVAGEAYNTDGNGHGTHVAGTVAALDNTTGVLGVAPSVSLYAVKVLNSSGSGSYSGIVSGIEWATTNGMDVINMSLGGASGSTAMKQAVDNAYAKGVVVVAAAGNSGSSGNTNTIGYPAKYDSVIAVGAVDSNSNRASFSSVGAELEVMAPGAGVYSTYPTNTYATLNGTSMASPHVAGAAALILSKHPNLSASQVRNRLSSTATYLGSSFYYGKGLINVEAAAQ
Test: Identification of peptide substrates susceptible to endopeptidic cleavage (Example 5)
Type: biochemical
Conditions: 6 h
Marks after values point to notes of the source that are not given here. * marks the point of attachment. code Z = not defined here; OtBu = CC(C)(C)O*

* Z-Val-Val-Gln-Leu-OBu^t ({code Z}-VVQL-OtBu; reading uncertain; also: printed as Z-Val-Val-Gln-Leu-OBu^t) [model tetrapeptide Z-Val-Val-X-Leu-OBu^t, X=Gln, tested in mix A] | 100/0 ^1)
* Z-Val-Val-Ser-Leu-OBu^t ({code Z}-VVSL-OtBu; reading uncertain; also: printed as Z-Val-Val-Ser-Leu-OBu^t) [model tetrapeptide Z-Val-Val-X-Leu-OBu^t, X=Ser, tested in mix A] | 100/0 ^1)
* Z-Val-Val-Asn-Leu-OBu^t ({code Z}-VVNL-OtBu; reading uncertain; also: printed as Z-Val-Val-Asn-Leu-OBu^t) [model tetrapeptide Z-Val-Val-X-Leu-OBu^t, X=Asn, tested in mix B] | 100/0
* Z-Val-Val-Leu-Leu-OBu^t ({code Z}-VVLL-OtBu; reading uncertain; also: printed as Z-Val-Val-Leu-Leu-OBu^t) [model tetrapeptide Z-Val-Val-X-Leu-OBu^t, X=Leu, tested in mix A] | 100/0 ^1)
* Z-Val-Val-Ala-Leu-OBu^t ({code Z}-VVAL-OtBu; reading uncertain; also: printed as Z-Val-Val-Ala-Leu-OBu^t) [model tetrapeptide Z-Val-Val-X-Leu-OBu^t, X=Ala, tested in mix A] | 100/0 ^1)

query: Fill blank: measured Ratio Desired Product vs. Substrate (% area) of the substance Z-Val-Val-Phe-Leu-OBu^t ({code Z}-VVFL-OtBu; reading uncertain; also: printed as Z-Val-Val-Phe-Leu-OBu^t) [model tetrapeptide Z-Val-Val-X-Leu-OBu^t, X=Phe, tested in mix B] is ____.
result: 81/19
